measured.target: human Werner helicase (WRN, amino acids 517-1235 with L1074F point mutation) (Homo sapiens (Human), UniProt Q14191, L1074F)
Sequence (Q14191 other isoform, or with tags, fused parts or gaps L1074F (already in the parent)): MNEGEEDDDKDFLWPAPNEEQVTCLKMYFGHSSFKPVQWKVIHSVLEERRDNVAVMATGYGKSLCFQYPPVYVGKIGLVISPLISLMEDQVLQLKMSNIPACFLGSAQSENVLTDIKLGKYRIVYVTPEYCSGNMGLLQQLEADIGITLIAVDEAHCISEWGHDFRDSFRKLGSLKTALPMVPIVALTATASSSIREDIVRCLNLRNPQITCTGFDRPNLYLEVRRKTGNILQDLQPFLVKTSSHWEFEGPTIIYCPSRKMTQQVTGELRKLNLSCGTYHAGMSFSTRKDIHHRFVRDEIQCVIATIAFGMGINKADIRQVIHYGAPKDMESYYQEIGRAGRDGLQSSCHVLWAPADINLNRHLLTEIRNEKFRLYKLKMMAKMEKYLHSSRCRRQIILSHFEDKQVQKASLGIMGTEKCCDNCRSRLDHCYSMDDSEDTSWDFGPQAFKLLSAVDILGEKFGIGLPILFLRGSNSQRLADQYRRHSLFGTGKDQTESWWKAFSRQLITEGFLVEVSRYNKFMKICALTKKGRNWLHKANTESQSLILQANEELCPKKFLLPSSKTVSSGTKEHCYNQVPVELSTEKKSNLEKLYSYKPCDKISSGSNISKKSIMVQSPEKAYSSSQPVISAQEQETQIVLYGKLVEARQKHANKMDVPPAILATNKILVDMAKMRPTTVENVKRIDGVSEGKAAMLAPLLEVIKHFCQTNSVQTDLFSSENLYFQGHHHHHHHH
protocol.details: WRN (BV08) ADP-Glo assay
Type: biochemical
assay.conditions: human WRN (aa 517-1235, L1074F), read-out: ADP-Glo_hWRN_IC50
pIC50: −log10 of the molar value.
reported.endpoint: pIC50

- compound: "CCc1c(N2CCN(C(=O)c3ncnc(C)c3O)[C@H]3CC[C@@H]32)c(=O)c2nn(-c3ccn(C)n3)nc2n1CC(=O)NC12CC(C(C)C)(C1)C2"
  meas.value: "7.30 to 8.30"
- compound: "CCc1c(N2CCN(C(=O)c3c(OC)ncc(C)c3O)[C@H]3CC[C@@H]32)c(=O)c2nn(C3=CCOCC3)nc2n1CC(=O)Nc1ccc(C(F)(F)F)cc1Cl"
  meas.value: "≥ 8.30"
- compound: "CCc1c(N2CCN(C(=O)c3ncnc(C)c3O)[C@H]3CC[C@@H]32)c(=O)c2nn(-c3ccccn3)nc2n1CC(=O)NC12CC(C(C)C)(C1)C2 [Compound I-90]"
  meas.value: "7.30 to 8.30"
- compound: "CCc1c(N2CCN(C(=O)c3c(OC)ncc(C)c3O)[C@H]3CC[C@@H]32)c(=O)c2nn(-c3ccnc(C)c3)nc2n1CC(=O)Nc1ccc(C(F)(F)F)cc1Cl"
  meas.value: "7.30 to 8.30"
- compound: "CCc1c(N2CCN(C(=O)c3c(OC(F)F)ncc(C)c3O)CC2)c(=O)c2nn(-c3ccnc(OC)c3)nc2n1CC(=O)NC12CC(C(C)C)(C1)C2"
  meas.value: "7.30 to 8.30"

API: the following record is the query input.
Suppose we examine the compound CCc1c(N2CCN(C(=O)c3c(O)ccc4ncoc34)CC2)c(=O)c2nn(C3CC3)nc2n1CC(=O)Nc1ccc(C(F)(F)F)cc1Cl ; what pIC50 value has been reported?
7.30 to 8.30
